Listed here are compounds together with their documented growth.
test system: NCI-H23 lung; experiment: NCI-60 one-dose screen, 48 h (100 = growth as untreated, 0 = no growth, -100 = all killed); conditions: 10 µM unless noted
This is part of a sample that, as a whole, favours compounds with a hit. Of some 83,000 tested, about 20% had one in any assay.
Please state the figure in %; there is no need to write the unit.

Check out these entries, answers already filled in.
CCOC(=O)c1sc(-c2ccc(OS(=O)(=O)c3ccccc3[N+](=O)[O-])c(C=O)c2)nc1C :: 50.6
Nc1ccc(-n2c(=O)oc3ccc(Cl)cc3c2=O)c(Cl)c1 :: -4.26
Nc1no[n+]([O-])c1-c1nnc2c(n1)-c1ccccc1C2=O :: -40.8
CCN1C(=O)N(CC)C2C1NN=c1s/c(=C3\C(=O)N(C(C)C)c4ccccc43)c(=O)n12 (stereo unspecified) :: 28.8
COC(=O)/C(=C\c1c(-c2ccccc2)[nH]c2ccccc12)S(C)(=O)=O :: 33.9

// moving on: another record for growth
Lookup: Item `COc1cccc(C(=O)Cn2cc(/C=C(\C#N)S(=O)(=O)c3ccccc3)c3ccccc32)c1` has what recorded growth?
Found: 90.4

----------
system: OVCAR-5 ovarian; assay: NCI-60 one-dose screen, 48 h (100 = growth as untreated, 0 = no growth, -100 = all killed); conditions: 10 µM unless noted
About 83,000 compounds went through this panel and 20% of them were active in at least one assay; those are over-represented in the sample as a whole.
Measured Metric: growth (%)
Please state the figure in %; there is no need to write the unit.

Check out these entries, answers already filled in.
NCCOc1ncccc1/C=C1\c2ccccc2-c2ccc([N+](=O)[O-])cc21 :: -72.8
Cc1nc(Nc2ccccn2)sc1C(=O)/C=C/c1ccc(Cl)cc1 :: 38.7
COc1ccc(/C=C/C(=O)c2c(C)nc3ccccc3c2/C=C/c2ccccc2)c(OC)c1 :: 88.2

Lookup: Item COc1ccc(C(O)(CCC(C)C)C(CN2CCOCC2)c2ccc(Cl)cc2)cc1 (centres undefined) has what recorded growth?
Found: 103

----------
test system: PC-3 prostate; experiment: NCI-60 one-dose screen, 48 h (100 = growth as untreated, 0 = no growth, -100 = all killed); conditions: 10 µM unless noted
The panel holds about 83,000 compounds, 20% with a hit somewhere; the sample as a whole holds those more often. Active and inactive are the calls of the source. The calls were made as follows: active = growth percent below 10; inactive = the rest.
Measured Metric: growth

Check out these entries, answers already filled in.
O=C(/C=C/c1ccc(Cl)cc1)c1ccc(Nc2nc(NCCO)nc(Nc3ccc(Cl)cc3)n2)cc1 :: 53.1% (inactive)
CC[C@H](C)[C@@H](C(=O)OC)n1cc(CNC(=O)[C@@H](Cc2ccccc2)NC(=O)OCc2ccccc2)nn1 :: 100% (inactive)
CNCCNc1nc2ccccc2c2c(=O)c3cccc(OC)c3sc12 :: 26.1% (inactive)

Lookup: GET /values?readout=growth&system=PC-3 prostate&item= O=C(NCc1ccccc1)C1CN(c2ccc(Cl)cc2)N(c2ccc(Cl)cc2)C1=O (centres undefined)
Found: 67.9% (inactive)

----------
tested on: NCI-H23 lung; experiment: NCI-60 one-dose screen, 48 h; settings: 10 µM unless noted
This is part of a sample that, as a whole, favours compounds with a hit. Of some 83,000 tested, about 20% had one in any assay. Active and inactive are the calls of the source. Rule for the calls: active = growth percent below 10; inactive = the rest.
Hello, when you answer, please use one of the following outcomes: True for active, False for inactive

The following compounds have reported results that may help.
CCN(CC)CCCNc1ccnc2cc3ccccc3cc12 :: False
O=C(CSc1ccc2nnc(-c3cccc(F)c3)n2n1)Nc1ccc2c(c1)OCO2 :: False
O=C(Nc1ccc(N2CCNCC2)cn1)c1[nH]ncc1Nc1ncnc2sccc12 :: False
C#CCn1cc(C=C2C(=O)N(C)C(=O)N(C)C2=O)c2cc(Cl)ccc21 :: False

Lookup: Dear all, I need the recorded test outcome for `O=C(Nc1ccc(-c2nc3cc4ccccc4cc3[nH]2)cc1)c1cccc(Br)c1` , thank you.
Found: False

Lookup: Dear all, I need the recorded test outcome for `COc1c2ccoc2c(/C=C/C=O)c2oc(-c3ccccc3)cc(=O)c12` , thank you.
Found: False

Lookup: Dear all, I need the recorded test outcome for `CCOC(=O)c1cc2c(n1Cc1cc(OC)cc(OC)c1)-c1oncc1CCC2` , thank you.
Found: False

Lookup: Dear all, I need the recorded test outcome for `Cc1c(-c2noc(-c3ccc([N+](=O)[O-])cc3)n2)no[n+]1[O-]` , thank you.
Found: False

Lookup: Dear all, I need the recorded test outcome for COc1ccc(-c2nsc3c2NC(=O)CC3c2ccc3c(c2)OCCO3)cc1 (stereo not drawn) , thank you.
Found: False

Lookup: Dear all, I need the recorded test outcome for `NCCNc1nc2ccccc2c2c(=O)c3cc(F)cc(Cl)c3sc12` , thank you.
Found: False

Lookup: Dear all, I need the recorded test outcome for `O=c1oc2ccc(F)cc2c(=O)n1-c1ccc(Br)cc1F` , thank you.
Found: True

Lookup: Dear all, I need the recorded test outcome for `Cc1ccc2cccc(Oc3ccc(Nc4ncnc5onc(-c6ccccc6)c45)cc3)c2n1` , thank you.
Found: False

Lookup: Dear all, I need the recorded test outcome for `CC(=O)c1ccc(Nc2nc(NCCO)nc(Nc3ccc(Cl)cc3)n2)cc1` , thank you.
Found: False

Lookup: Dear all, I need the recorded test outcome for `O=C(CN1C(=O)/C(=C\c2ccc(Cl)cc2)SC1=S)Nc1ncc(Cc2ccc(Cl)cc2)s1` , thank you.
Found: False

Lookup: Dear all, I need the recorded test outcome for COc1ccc(C2C3=C(COC3=O)N(CCO)c3cc4c(cc32)OCCO4)cc1 (stereo not drawn) , thank you.
Found: False

Lookup: Dear all, I need the recorded test outcome for `CN(C)CCNc1cc(-c2ccccc2)nc2ccccc12` , thank you.
Found: True

Lookup: Dear all, I need the recorded test outcome for `CC(C)Cn1c2c(c(=S)[nH]c1=O)CCC2` , thank you.
Found: False

----------
system: NCI/ADR-RES ovarian; test: NCI-60 one-dose screen, 48 h (100 = growth as untreated, 0 = no growth, -100 = all killed); conditions: 10 µM unless noted
About 83,000 compounds went through this panel and 20% of them were active in at least one assay; those are over-represented in the sample as a whole.
Listed here are compounds together with their documented growth.
Please state the figure in %; there is no need to write the unit.

Check out these entries, answers already filled in.
Cn1c(/C=C(\C#N)c2cccc(C(F)(F)F)c2)nc2c(N3CCOCC3)nc(Cl)nc21 :: 20.1
CN1C(=O)N(C)C2C1NN=c1s/c(=C\c3c[nH]c4ccccc34)c(=O)n12 (centres undefined) :: 15.6
COc1ccc(C2Nc3ncnc(N)c3N=C3c4ccccc4C(=O)C32)cc1 (centres undefined) :: 105
COc1cc2nc(-c3cnc(N(C)C)nc3)nc(NC3CCN(Cc4ccccc4)CC3)c2cc1OC :: -54.1
O=C(Nc1ccc(F)c(Cl)c1)Nc1ccc(Cl)c(Cl)c1 :: 59.1
O=c1c(-c2nc3ccccc3[nH]2)cc2ccccc2n1Cc1cn(Cc2ccc(F)cc2)nn1 :: 31.7
O=c1[nH]nnc2c1ncn2C1OC(CO)C(O)C1O (centres undefined) :: 39.5
CC(C)c1ccc(S(=O)(=O)NC(=O)NC2CCCC2)cc1 :: 105

Lookup: GET /values?readout=growth&system=NCI/ADR-RES ovarian&item= `COc1ccc(/C=C2\SC(=Nc3ccccc3)NC2=O)cc1`
Found: -8.71

Lookup: GET /values?readout=growth&system=NCI/ADR-RES ovarian&item= CCN1C(=O)N(CC)C2C1NN=c1s/c(=C3\C(=O)N(CC(C)(C)C)c4ccccc43)c(=O)n12 (centres undefined)
Found: 11.3

Lookup: GET /values?readout=growth&system=NCI/ADR-RES ovarian&item= `Brc1ccc(Oc2ccc(Nc3ncnc4onc(-c5ccccc5)c34)cc2)cc1`
Found: 94.1

Lookup: GET /values?readout=growth&system=NCI/ADR-RES ovarian&item= `C#CCn1cc(C=C2C(=O)N(C)C(=O)N(C)C2=O)c2cc(Cl)ccc21`
Found: 107

Lookup: GET /values?readout=growth&system=NCI/ADR-RES ovarian&item= `O=c1oc2ccc(Br)cc2c(=O)n1-c1ccc(Cl)cc1F`
Found: 8.34

Lookup: GET /values?readout=growth&system=NCI/ADR-RES ovarian&item= C=CCN1C(=O)/C(=c2\sc3n(c2=O)NC2C(N=3)N(CC)C(=O)N2CC)c2ccccc21 (centres undefined)
Found: 18.7

Lookup: GET /values?readout=growth&system=NCI/ADR-RES ovarian&item= `CN1CCN(Cc2ccc(NC(=O)c3cncc(C#Cc4nc(N)nc5[nH]ncc45)c3)cc2C(F)(F)F)CC1`
Found: 114

Lookup: GET /values?readout=growth&system=NCI/ADR-RES ovarian&item= Clc1ccc(-c2nnc(COc3ccc(C4=NNC(c5ccco5)C4)cc3)o2)cc1 (centres undefined)
Found: 72.6

Lookup: GET /values?readout=growth&system=NCI/ADR-RES ovarian&item= CC(=O)SC1CC(=O)C=C2CCC3C4CCC(=O)OC4(C)CCC3C21C (centres undefined)
Found: 110

Lookup: GET /values?readout=growth&system=NCI/ADR-RES ovarian&item= `CCCCCCc1cc2cc(-c3nc4ccccc4[nH]3)c(=Nc3ccccc3C)oc2cc1O`
Found: 49.9

Lookup: GET /values?readout=growth&system=NCI/ADR-RES ovarian&item= `O=c1oc2ccc(I)cc2c(=O)n1-c1ccc(Br)cc1F`
Found: 7.59

Lookup: GET /values?readout=growth&system=NCI/ADR-RES ovarian&item= `FC(F)(F)c1cccc(Nc2nc(-c3ccccc3)nc3ncccc23)c1`
Found: 86.3

Lookup: GET /values?readout=growth&system=NCI/ADR-RES ovarian&item= O=C(CN1C=NC2C(N3CCOCC3)=NC=NC21)c1ccc(Br)cc1 (centres undefined)
Found: 103

Lookup: GET /values?readout=growth&system=NCI/ADR-RES ovarian&item= `O=C1N=c2ccccc2=C1c1sc(=Nc2ccccc2)n(Nc2ccccc2)c1O`
Found: 108

Lookup: GET /values?readout=growth&system=NCI/ADR-RES ovarian&item= CCCSC1=NC2C(N(CC)C(=O)N2CC)N1/N=C/C=C/c1ccccc1[N+](=O)[O-] (centres undefined)
Found: 13.4

Lookup: GET /values?readout=growth&system=NCI/ADR-RES ovarian&item= `Cc1ccc(Cn2c(N3CCC(C(=O)NCc4cccs4)CC3)nc3ccccc32)cc1`
Found: 86.2
